Where do the numbers come from? From PubChem BioAssay (NCATS).

assay-procedure: Quantitative High-Throughput drug screen in 47 multiple myeloma cell lines against the NCATS MIPE library collection: OCIMY5_PLB cell viability assay (AID 1918988); note: nearly all actives have a fitted effect of over 65% in size
condition-notes: OCI-MY5 myeloma viability, ATP luminescence, 48 h; series mostly up to 45.8 µM
Records with an inconclusive call do not appear. The source made the active and inactive calls. Calls come from the whole dose curve; as a rule, active = well fitted cell-killing curve with a large enough effect; inconclusive = small, poorly fitted or top-dose-only effect, or effect the other way; inactive = no such curve, though single readings can be large or run the other way.
// one of 1 (yes) (active), 0 (no) (inactive), no free text

Entry COc1cc(C)c(Sc2cnc(NC(=O)c3ccc(CNC(C)C(C)C)cc3)s2)cc1C(=O)N1CCN(C(C)=O)CC1 (stereo not drawn) : call = ?
1 (yes)

Entry CCn1nnc2c(N3CCOCC3)nc(-c3ccc(NC(=O)Nc4ccc(C(=O)N5CCN(C)CC5)cc4)cc3)nc21 : call = ?
1 (yes)

Entry CNC(=O)c1c(F)cccc1Nc1nc(Nc2cc3c(cc2OC)CCN3C(=O)CN(C)C)nc2[nH]ccc12 : call = ?
1 (yes)

Entry NC(=O)Nc1cc(-c2cccc(F)c2)sc1C(=O)N[C@H]1CCCNC1 : call = ?
1 (yes)

Entry CC(O)C1C(=O)N2C(C(=O)O)=C(SC3CNC(C(=O)N(C)C)C3)C(C)C12 (stereo not drawn) : call = ?
0 (no)

Entry CCOc1cc2ncc(C#N)c(Nc3ccc(F)c(Cl)c3)c2cc1NC(=O)C=CCN(C)C : call = ?
1 (yes)

Entry O=C(O)C1(Cc2cccc(Nc3nccs3)n2)CCC(Oc2cccc(Cl)c2F)CC1 (stereo not drawn) : call = ?
1 (yes)

Entry C[C@@H]1COC(Nc2ccc3ncnc(Nc4ccc(OCc5nccs5)c(Cl)c4)c3c2)=N1 : call = ?
1 (yes)

Entry CCCn1c(=O)c2[nH]c(-c3cnn(Cc4cccc(C(F)(F)F)c4)c3)nc2n(CC)c1=O : call = ?
1 (yes)

Entry CC(C)(C)c1cnc(CSc2cnc(NC(=O)C3CCNCC3)s2)o1 : call = ?
1 (yes)

Entry COc1cccc2c(NCc3ccccc3)nc(-n3c(N)nc4ccccc43)nc12 : call = ?
1 (yes)

Entry Cc1cc(C(=O)N2CCN(c3cccc(Cl)c3)CC2)n(-c2ccccc2)n1 : call = ?
1 (yes)

Entry CC(C)Nc1cc(C(F)(F)F)cc2nc(NC(=O)c3cccnc3)nn12 : call = ?
1 (yes)

Entry CC=C1NC(=O)[C@H]2CSSCCC=C[C@H](CC(=O)N[C@H](C(C)C)C(=O)N2)OC(=O)[C@H](C(C)C)NC1=O : call = ?
1 (yes)

Entry CS(=O)(=O)c1ccc(-c2cnc(N)c(C(=O)Nc3ccccc3)n2)cc1 : call = ?
1 (yes)

Entry NC(=O)c1c(OCc2c(F)cc(Br)cc2F)nsc1NC(=O)NCCCCN1CCCC1 : call = ?
1 (yes)

Entry Nc1cccc(-c2cc3c(Oc4cccc(O)c4)ncnc3[nH]2)c1 : call = ?
1 (yes)

Entry Nc1nc(NCCNc2ncc(-n3ccnc3)c(-c3ccc(Cl)cc3Cl)n2)ccc1[N+](=O)[O-] : call = ?
1 (yes)

Entry O=C(O)c1ccc2cc(-c3ccc(O)c(C45CC6CC(CC(C6)C4)C5)c3)ccc2c1 : call = ?
1 (yes)

Entry CCCCc1nc2cc(C=CC(=O)NO)ccc2n1CCN(CC)CC : call = ?
1 (yes)

Entry O=C(C=Cc1cccc(S(=O)(=O)Nc2ccccc2)c1)NO : call = ?
1 (yes)

Entry C[C@@H](Oc1cc(-c2cnn(C3CCNCC3)c2)cnc1N)c1c(Cl)ccc(F)c1Cl : call = ?
1 (yes)

Entry COc1cc2c(Oc3ccc(-c4cnc(Nc5ccc(F)cc5)n(C)c4=O)cc3F)ccnc2cc1OCCCN1CCOCC1 : call = ?
1 (yes)

Entry Cc1ccc(NC(=O)C2(c3ccc4c(c3)OC(F)(F)O4)CC2)nc1-c1cccc(C(=O)O)c1 : call = ?
1 (yes)

Entry CC(=O)c1c(C)c2cnc(Nc3ccc(N4CCNCC4)cn3)nc2n(C2CCCC2)c1=O : call = ?
1 (yes)

Entry CNC(=O)c1cc(Oc2ccc(NC(=O)Nc3cc(C(C)(C)C)nn3-c3ccc4ncccc4c3)c(F)c2)ccn1 : call = ?
1 (yes)

Entry CC(C)=CCCC(C)=CCCC(C)=CCSc1ccccc1C(=O)O : call = ?
1 (yes)

Entry COC(=O)Nc1nc2ccc(C(=O)c3ccc(F)cc3)cc2[nH]1 : call = ?
1 (yes)

Entry Nc1ccn([C@@H]2O[C@H](CO)[C@H](O)C2(F)F)c(=O)n1 : call = ?
1 (yes)

Entry CCOc1ccccc1OCCNC(C)Cc1ccc(OC)c(S(N)(=O)=O)c1 (stereo not drawn) : call = ?
0 (no)

Entry O=c1[nH]c(=O)n(C2CCCO2)cc1F (stereo not drawn) : call = ?
1 (yes)

Entry Cc1cnc(-c2cnc(NCCNc3ccc(C#N)cn3)nc2-c2ccc(Cl)cc2Cl)[nH]1 : call = ?
1 (yes)

Entry N#CCNC(=O)c1ccc(-c2ccnc(Nc3ccc(N4CCOCC4)cc3)n2)cc1 : call = ?
1 (yes)

Entry Cc1cc(N2CCOCC2)cc2[nH]c(-c3c(NC[C@@H](O)c4cccc(Cl)c4)cc[nH]c3=O)nc12 : call = ?
1 (yes)

Entry CC(C)(C)NC(=O)[C@H]1CN(Cc2cccnc2)CCN1C[C@@H](O)C[C@@H](Cc1ccccc1)C(=O)N[C@H]1c2ccccc2C[C@H]1O : call = ?
1 (yes)

Entry CC(C)c1noc(N2CCC(COc3ccc(-c4ccc(S(C)(=O)=O)cc4)nc3)CC2)n1 : call = ?
1 (yes)

Entry Fc1cc(-c2cccc3ncc(-c4cnn(C5CCNCC5)c4)nc23)cc(F)c1CN1CCOCC1 : call = ?
1 (yes)

Entry Cc1cn2cc(C(=O)N(C)CCO)cc(N[C@@H]3CCOc4cccc(C)c43)c2n1 : call = ?
0 (no)
